Tested on: SF-539 CNS
Test Name: NCI tumour cell line growth inhibition, 48 h
So I've got a bunch of compounds here, and I need their TGI values.

// map Cc1c(NC(=O)Nc2c(Cl)cccc2Cl)c(=O)n(-c2ccccc2)n1C to recorded TGI (system: SF-539 CNS)
> 100 µM

Now consider COc1cc2c(c(OC)c1OC)C(=O)[C@@H](O)[C@H]2NC(N)=O .
> 100 µM

Now consider COc1ccc(/C=C2\CCC(C)c3c2nc(N)c(C#N)c3-c2ccc(OC)c(OC)c2)cc1OC (stereo not drawn) .
> 100 µM

Now consider COc1cc2c3c(n(CCN4CCOCC4)c(=O)c2cc1OC)-c1ccccc1C3=O .
> 100 µM

Now consider CNn1c(-c2ccc(C)cc2)n[nH]c1=O .
> 100 µM

Now consider CN(C)c1cc2c(Nc3ccc4c(cnn4Cc4ccccc4)c3)ncnc2cn1 .
> 25 µM

Now consider CC(C)N1C(C)[C@@H](c2ccccc2)O[P@@]1(=O)CC1=CCCCC1 (stereo partly drawn) .
> 100 µM

Now consider CC(=O)NC1CC(C(C)(C)NC(C)=O)CC=C1C (stereo not drawn) .
> 100 µM

Now consider CC(=O)OC1CC(OC2C(O)CC(OC3C(O)CC(OC4CCC5(C)C(CCC6C5CCC5(C)C(C7=CC(=O)OC7)CCC65O)C4)OC3C)OC2C)OC(C)C1OC1OC(CO)C(O)C(O)C1O (stereo not drawn) .
0.0352 µM

Now consider C[C@H]1COCCN1c1nc(-c2cnc(N)cc2C(F)F)nc(N2CCOCC2)n1 .
1.45 µM

Now consider C=C1CCC2[C@](C)(CCC[C@]2(C)C(=O)O)[C@@H]1CCc1ccoc1 (stereo partly drawn) .
99.4 µM

Now consider CC(C)OC(=O)C1(C(C)C)CCc2ccc(C(=O)CCC(=O)O)cc21 (stereo not drawn) .
> 100 µM

Now consider CN(CCCN1C(=O)c2cccc3cc([N+](=O)[O-])cc(c23)C1=O)CCN(C)CCCN1C(=O)c2cccc3cc([N+](=O)[O-])cc(c23)C1=O .
> 39.3 µM

* * *

So I've got a bunch of compounds here, and I need their TGI values.
Tested on: UACC-257 melanoma
Test Name: NCI tumour cell line growth inhibition, 48 h

For the compound C=C1CCC2[C@](C)(CCC[C@]2(C)C(=O)O)[C@@H]1CCc1ccoc1 (some centres undefined) , what TGI is on record?
83.5 µM

Now consider COCCNCc1ccc(-c2cc3nccc(Oc4ccc(NC(=O)C5(C(=O)Nc6ccc(F)cc6)CC5)cc4F)c3s2)nc1 .
3.33 µM

Now consider c1ccc(C2=NN=C3C(c4ccccc4)=Nc4ccccc4N3C2)cc1 .
32.4 µM

Now consider O=C1CC(Cc2n[nH]c3c2CCCC3)CC(=O)N1 .
> 100 µM

Now consider CO[C@@H]1C[C@H]2[C@@H]3CC[C@H]([C@H](C)COC(C)=O)[C@@]3(C)CC[C@@H]2[C@@]2(C)CC[C@H]3C[C@]312 .
> 100 µM

Now consider CC(=O)c1ccc2c3c1[C@H]1O[C@H]1c1cccc(c1-3)[C@@H]1O[C@H]21 .
8.1 µM

Now consider CC(C)[C@@H]1CC[C@@H](C)C[C@H]1OC(=O)/C=C1\C(C(=O)O[C@@H]2C[C@H](C)CC[C@H]2C(C)C)[C@H]2C=C[C@@H]1O2 (some centres undefined) .
> 100 µM

Now consider COC(=O)C12C34C=CC5(CCC6(C=CC1(CC3)O6)C52C(=O)OC)O4 (centres undefined) .
> 100 µM

Now consider CCOC(=O)C1=C(O)C(=O)c2ccoc2C1=O .
> 100 µM

Now consider O=C(COC(=O)c1cccc2c(=O)c3ccccc3[nH]c12)Nc1ccc(Cl)cc1 .
> 100 µM

Now consider O=C(NCCCl)Nc1ccccc1 .
> 100 µM

Now consider COc1ccc(/C=N/N=C(\N)NO)cc1F .
> 100 µM

Now consider COc1cc(C2c3cc4c(cc3[C@@H](Nc3ccc([N+](=O)[O-])cc3)C3COC(=O)[C@H]23)OCO4)cc(OC)c1O (some centres undefined) .
34.5 µM

Now consider Cc1ccc(NC(=S)C#N)c(C)c1 .
> 100 µM

Now consider S=c1[nH]n2c(COc3ccc(Cl)cc3)nnc2s1 .
> 100 µM

Now consider CNn1c(-c2ccc(C)cc2)n[nH]c1=O .
> 100 µM

Now consider COc1ccc2cc(CN3CCC(C4CCN(Cc5ccc6cc(OC)ccc6c5)CC4)CC3)ccc2c1 .
3.88 µM

Now consider c1cc(C2CCCCC2)ccc1-c1cnc2nonc2n1 .
3.9 µM

Now consider OC(CN1CCCC2CCCCC21)c1cc2ccccc2c2ccccc12 (centres undefined) .
4.73 µM

Now consider Cc1ccc(C)c(NC(=O)C(=O)C2C(=O)N(c3ccccc3)N=C2N)c1 (centres undefined) .
> 100 µM

Now consider C[C@@H](NC(=O)Cn1c(Cl)nc2ccccc21)c1ccccc1 .
> 100 µM

Now consider CSCC(CO)NC(=O)/C=C/c1c(C)[nH]c(=O)[nH]c1=O (centres undefined) .
> 875 µM

Now consider N#Cc1c(N)nc(SCc2ccccc2)c(C#N)c1-c1ccc(O)cc1 .
> 52.4 µM

Now consider C(=C\c1ccncc1)/c1ccncc1 .
> 100 µM

Now consider Nc1ccc(Cn2ccc3c4c(N)nc(N)nc4ccc32)cc1 .
8.02 µM

Now consider COc1c2cc([N+](=O)[O-])cc1CN(C(=O)C(F)(F)F)CCOCCN(C(=O)C(F)(F)F)C2 .
> 100 µM

Now consider Cc1nn(Cc2ccccc2)cc1C(=O)Nc1sc2c(c1C(N)=O)CCC(=O)C2 .
6.24 µM

Now consider CC(C)N1C(C)[C@@H](c2ccccc2)O[P@@]1(=O)CC1=CCCCC1 (some centres undefined) .
> 100 µM

Now consider O=[N+]([O-])c1ccc(C2SCc3nc4ccccc4n32)cc1 (centres undefined) .
> 100 µM

Now consider CC(=O)c1c2c(cc3c1CC1(Cc4cc5c(cc4C1)C(=O)CCC5)C3)CCCC2 (centres undefined) .
15.4 µM

Now consider CN(C)c1cccc(OC(=O)NCCCl)c1 .
> 100 µM

Now consider O=c1[nH]c2ccc(Cl)cc2o1 .
> 100 µM

Now consider O=C(O)/C(Cl)=C(Cl)/C=N/NC(=O)c1cc2ccccc2cc1O .
65.6 µM

Now consider COC(=O)c1c2c(c(C)[n+]([O-])c1C)C(=O)C(NCc1ccc(F)cc1)=CC2=O .
2.44 µM

* * *

Tested on: MCF7 breast
Test Name: NCI tumour cell line growth inhibition, 48 h
So I've got a bunch of molecules here, and I need their TGI values.

For the molecule O=[N+]([O-])c1cccc(-c2cn3c(n2)Cc2ccccc2C3)c1 , what TGI is on record?
> 100 µM

Now consider c1ccc(C2=NN=C3C(c4ccccc4)=Nc4ccccc4N3C2)cc1 .
> 77.4 µM

Now consider COc1cc(C2c3cc4c(cc3[C@@H](Nc3ccc([N+](=O)[O-])cc3)C3COC(=O)[C@H]23)OCO4)cc(OC)c1O (stereo partly specified) .
> 43.1 µM

Now consider Cc1ccc2c(n1)NC(=O)C(Cc1ccccc1)(N=[N+]=[N-])C2=O (stereo unspecified) .
> 100 µM

Now consider Cc1nc2sc(C(=O)Nc3ccccc3)c(N)c2cc1C(O)c1ccccc1 (stereo unspecified) .
19.1 µM

Now consider C[C@H](CCC(=O)NCCS(=O)(=O)O)[C@H]1CC[C@H]2[C@@H]3[C@H](O)C[C@@H]4C[C@H](O)CC[C@]4(C)[C@H]3CC[C@]12C .
> 100 µM

Now consider COc1cc2c3c(n([C@@H]4CCOC4)c(=O)c2cc1OC)-c1cc2c(cc1C3=O)OCO2 .
> 100 µM

Now consider COC(=O)[C@@H](NC(=O)[C@H](N)Cc1ccc(N(CCCl)CCCl)cc1)C(C)C .
> 100 µM

Now consider CN(C)CCNC(=O)c1cccc2c1Oc1cccc([N+](=O)[O-])c1O2 .
40.6 µM

Now consider COc1ccc(/C=C2\CCC(C)c3c2nc(N)c(C#N)c3-c2ccc(OC)c(OC)c2)cc1OC (stereo unspecified) .
> 100 µM

Now consider CN(/N=C/C=N/N(C)C1=NCCCN1)C1=NCCCN1 .
> 100 µM

Now consider O=C(N/N=C/c1cc(Cl)ccc1O)c1ccccc1Nc1ccnc(C(F)(F)F)c1 .
30.3 µM

Now consider CC(C)c1[nH]nc2c(NCc3ccc(-c4ccccn4)cc3)nc(SCCN(C)C)nc12 .
10.5 µM

Now consider NNC(=O)c1cc([N+](=O)[O-])ccc1NC(=O)C12CC3CC(CC(C3)C1)C2 .
> 100 µM

Now consider C[C@@H](CS[As](C)C)C(=O)N1CCC[C@H]1C(=O)O .
2.03 µM

Now consider CNn1c(-c2ccc(C)cc2)n[nH]c1=O .
> 100 µM

Now consider Cc1ccc(-c2c3c(nn2-c2ccc(S(=O)(=O)NC(=O)NC4CCCCC4)cc2)-c2ccccc2C3)cc1 .
37.3 µM

Now consider Cc1ccc2c(=O)c(-c3nnc(NC4CCCCC4)s3)c[nH]c2n1 .
> 100 µM

Now consider O=C(OCc1ccccc1)c1ccc(NCc2cc(O)ccc2O)cc1 .
7.81 µM

Now consider CC(=O)CCc1ccc(Oc2c3c(nc4ccccc24)OCC3)cc1 .
> 100 µM

Now consider CC1(C)N=C(c2ccccc2)SC12S[C@@H]1CCCC[C@H]1S2 .
> 100 µM

Now consider C[C@@]1(C(=O)O)CCC[C@]2(C)C1CC[C@]13C[C@@](O)(CO)[C@](O)(CC[C@]12O)C3 (stereo partly specified) .
> 100 µM

Now consider O=CC(O)C(O)C1OC(=O)c2cc(O)c(O)c(O)c2C2=C(O)C(O)=C3OC(=O)c4c(c(O)c(O)c5c4C3C2C(=O)O5)-c2c(cc(O)c(O)c2O)C(=O)OCC1O (stereo unspecified) .
39.7 µM

Now consider C[C@@H](NC(=O)Cn1c(Cl)nc2ccccc21)c1ccccc1 .
> 100 µM

Now consider O=C(NCc1ccco1)C1CCN(S(=O)(=O)c2ccc(Cl)cc2)CC1 .
> 100 µM

Now consider COC(=O)[C@]12C3=C(O)C(=O)C[C@H]1OC[C@H]2C=CC3 .
> 100 µM

Now consider CC(C)(C)C(=O)c1c(C(F)(F)F)n([O-])c2cc(Cl)c(Cl)cc2[n+]1=O .
0.566 µM

Now consider CCOC(=O)N/N=C(\CC)NO .
> 100 µM

Now consider CN(C)c1cc2c(Nc3ccc4c(cnn4Cc4ccccc4)c3)ncnc2cn1 .
> 25 µM

Now consider O=C(NCCCl)Nc1ccccc1 .
> 100 µM

Now consider COc1ccc2c(C)cc(N/N=C/c3ccc(C)s3)nc2c1 .
25.3 µM
